# target under test: human GABAA α5β3γ2s receptor (Homo sapiens, UniProt P18507+P31644)
# Sequence (P18507 1-475): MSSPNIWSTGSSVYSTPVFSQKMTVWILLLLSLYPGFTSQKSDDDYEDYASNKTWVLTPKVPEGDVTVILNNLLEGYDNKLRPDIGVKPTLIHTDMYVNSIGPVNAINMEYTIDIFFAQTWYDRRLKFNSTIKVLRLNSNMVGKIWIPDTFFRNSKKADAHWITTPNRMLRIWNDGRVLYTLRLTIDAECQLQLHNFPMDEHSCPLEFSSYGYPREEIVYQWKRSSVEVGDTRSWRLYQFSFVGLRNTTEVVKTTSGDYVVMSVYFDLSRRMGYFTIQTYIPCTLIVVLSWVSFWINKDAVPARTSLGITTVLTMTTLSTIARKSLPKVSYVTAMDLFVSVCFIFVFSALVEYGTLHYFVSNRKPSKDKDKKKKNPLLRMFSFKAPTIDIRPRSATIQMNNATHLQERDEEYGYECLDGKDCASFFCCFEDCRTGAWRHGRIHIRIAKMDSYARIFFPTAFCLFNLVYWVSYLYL
# Sequence (P31644 1-462): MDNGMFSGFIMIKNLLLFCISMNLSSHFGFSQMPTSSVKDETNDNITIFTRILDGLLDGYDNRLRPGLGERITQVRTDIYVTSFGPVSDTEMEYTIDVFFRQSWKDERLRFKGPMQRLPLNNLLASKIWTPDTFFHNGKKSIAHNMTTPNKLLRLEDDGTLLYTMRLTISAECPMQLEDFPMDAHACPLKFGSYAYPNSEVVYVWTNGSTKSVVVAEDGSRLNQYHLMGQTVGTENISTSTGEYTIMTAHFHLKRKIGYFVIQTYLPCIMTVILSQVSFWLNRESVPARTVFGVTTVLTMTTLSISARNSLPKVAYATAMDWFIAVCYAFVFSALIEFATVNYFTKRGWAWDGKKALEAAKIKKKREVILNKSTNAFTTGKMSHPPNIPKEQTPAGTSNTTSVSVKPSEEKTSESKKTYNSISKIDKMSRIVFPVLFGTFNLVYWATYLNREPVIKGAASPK
# protocol summary: Assay A: in vitro inhibition of 3H-flumazenil binding, HEK cells expressing the human GABAA α5β3γ2s receptor
# particulars: comparison compounds of WO 2020/016433; read-out: Assay A: GABAA α5 β3 γ2S Ki
# Procedure: Cell Cultures and Membrane Preparation […] Non-specific binding is determined using clonazepam ([…]). […] The amount of radioactivity on the filters is determined by conventional liquid scintillation counting using a […] The IC50 value for a test compound is determined based on the equation: […] The Ki value for a test compound can be calculated from the IC50 value using the equation by Cheng and Prusoff: […]
measured property: Ki

Query the reported Ki for human GABAA α5β3γ2s receptor (Homo sapiens, UniProt P18507+P31644); item: Cc1nnn(-c2ccc(C(F)F)cc2)c1COc1ccc(-c2ccn[nH]2)nn1 [reference compound]
0.12 nM

Query the reported Ki for human GABAA α5β3γ2s receptor (Homo sapiens, UniProt P18507+P31644); item: Cc1nnn(-c2ccc(C(F)F)cc2)c1COc1ccc(-n2cnc(C#N)c2)nn1 [reference compound]
0.126 nM

Query the reported Ki for human GABAA α5β3γ2s receptor (Homo sapiens, UniProt P18507+P31644); item: Cc1nnn(-c2ccc(C(F)F)cc2)c1COc1ccc(-c2cnccn2)nn1 [reference compound]
0.249 nM

Query the reported Ki for human GABAA α5β3γ2s receptor (Homo sapiens, UniProt P18507+P31644); item: Cc1nnn(-c2ccc(C(F)F)cc2)c1COc1ccc(-n2cncn2)nn1 [reference compound]
0.546 nM

---

# target under test: α5ß2 γ2 GABAA Receptor (Homo sapiens, UniProt P18507+P31644)
# protocol summary: Assay B: in vitro evaluation of modulation of α5ß2γ2 GABAA receptor, two-electrode voltage clamp in oocytes
# particulars: co-application with 0.5 μM GABA, oocytes; read-out: Assay B: GABAA α 5 β 3 γ 2 EC50
measured property: pEC50
Reminder that pEC50 means the negative base-10 logarithm of the concentration expressed in mol/L.

# input compound: Cc1nnn(-c2ccc(C(F)F)cn2)c1COc1ccc(-c2ccc(=O)n(C)c2)nn1 [Example 1] ; wanted: its pEC50
7.38

# input compound: Cc1nnn(-c2ccc(C(F)F)cn2)c1COc1ccc(-n2ccnn2)nn1 [Example 44] ; wanted: its pEC50
7.85

# input compound: Cc1nnn(-c2ccc(C(F)F)cn2)c1COc1ccc(-c2c[nH]c(=O)c(F)c2)nn1 [Example 20] ; wanted: its pEC50
7.94

# input compound: Cn1nnc(-c2ccc(C(F)F)cn2)c1COc1ccc(-n2ccnc2C#N)nn1 [Example 46] ; wanted: its pEC50
7.98

---

# System: human MDR1 P-gp
# protocol summary: Assessment of efflux in MDCK cells transfected with the human MDR1 gene
# Assay type: in vitro ADME, canine
# particulars: dog, pH 7.4, 37° C., read-out: MDCK-PGP Efflux ratio [PEBA/PEAB]
# Experimental: Assessment of efflux in Madin-Darby canine kidney (MDCK) cells transfected with the human MDR1 gene to assess brain penetration (Drug Metabolism and Disposition February 2008, 36 (2) 268-275; DOI: https://doi.org/10.1124/dmd.107.017434) Apparent permeability coefficients (PE) of the compounds across the MDCK-MDR1 cell monolayers are measured (pH 7.4, 37° C.) in apical-to-basal (AB) and basal-to-apical (BA) transport direction. […]
measured property: efflux ratio
# output: bare number, no unit

Query the reported efflux ratio for human MDR1 P-gp; item: Cn1nnc(-c2ccc(C(F)F)cn2)c1COc1ccc(-c2cccc(C(N)=O)c2)nn1
17.2

Query the reported efflux ratio for human MDR1 P-gp; item: Cc1nnn(-c2ccc(C(F)F)cn2)c1COc1ccc(-c2cnccn2)nn1
0.6

Query the reported efflux ratio for human MDR1 P-gp; item: CNc1cccc(-c2ccc(OCc3c(C)nnn3-c3ccc(C(F)F)cn3)nn2)n1
0.7

Query the reported efflux ratio for human MDR1 P-gp; item: Cc1n[nH]c(C)c1-c1ccc(OCc2c(C)nnn2-c2ccc(C(F)F)cn2)nn1
3.5

Query the reported efflux ratio for human MDR1 P-gp; item: Cc1ncnn1-c1ccc(OCc2c(-c3ccc(C(F)F)cn3)nnn2C)nn1
0.8

Query the reported efflux ratio for human MDR1 P-gp; item: Cn1nnc(-c2ccc(C(F)F)cn2)c1COc1ccc(-c2cnccn2)nn1
0.6

Query the reported efflux ratio for human MDR1 P-gp; item: Cc1nnn(-c2ccc(C(F)F)cn2)c1COc1ccc(-c2c[nH]c(=O)c(F)c2)nn1
2

Query the reported efflux ratio for human MDR1 P-gp; item: CCn1cc(-c2ccc(OCc3c(-c4ccc(C(F)F)cn4)nnn3C)nn2)cn1
1.1

---

Give half-life at 1 μM for every item shown.
# protocol summary: Metabolic stability in human liver microsomes (Human MST)
# Format: in vitro ADME
# particulars: pH 7.6, pooled human liver microsomes, 37° C., read-out: Human MST t½

# input compound: Cc1nnn(-c2ccc(C(F)F)cn2)c1COc1ccc(-c2cc[nH]n2)nn1 ; wanted: its half-life at 1 μM
1.38 h

# input compound: Cn1nnc(-c2ccc(C(F)F)cn2)c1COc1ccc(-c2ccc(N)nc2)nn1 ; wanted: its half-life at 1 μM
> 2.17 h

# input compound: Cn1nnc(-c2ccc(C(F)F)cn2)c1COc1ccc(-c2cn[nH]c2)nn1 ; wanted: its half-life at 1 μM
1.03 h

# input compound: Cc1nnn(-c2ccc(C(F)F)cn2)c1COc1ccc(-c2cnn(CC#N)c2)nn1 ; wanted: its half-life at 1 μM
> 2.17 h

# input compound: Cn1nnc(-c2ccc(C(F)F)cn2)c1COc1ccc(-c2cnc3nonc3c2)nn1 ; wanted: its half-life at 1 μM
> 2.17 h

# input compound: Cc1nnn(-c2ccc(C(F)F)cn2)c1COc1ccc(-c2cccc(C(N)=O)c2)nn1 ; wanted: its half-life at 1 μM
1.93 h

# input compound: Cc1nnn(-c2ccc(C(F)F)cn2)c1COc1ccc(-c2ccc(C#N)nc2)nn1 ; wanted: its half-life at 1 μM
> 2.17 h

# input compound: Cc1ncc(-c2ccc(OCc3c(C)nnn3-c3ccc(C(F)F)cn3)nn2)o1 ; wanted: its half-life at 1 μM
> 2.17 h

# input compound: Cc1nnn(-c2ccc(C(F)F)cn2)c1COc1ccc(-c2ccnnc2)nn1 ; wanted: its half-life at 1 μM
> 2.17 h

# input compound: Cc1ncnn1-c1ccc(OCc2c(-c3ccc(C(F)F)cn3)nnn2C)nn1 ; wanted: its half-life at 1 μM
> 2.17 h

# input compound: Cc1nnn(-c2ccc(C(F)F)cn2)c1COc1ccc(-c2c[nH]c(=O)c(F)c2)nn1 ; wanted: its half-life at 1 μM
> 2.17 h

# input compound: Cn1nnc(-c2ccc(C(F)F)cn2)c1COc1ccc(-c2cccc(C(N)=O)c2)nn1 ; wanted: its half-life at 1 μM
> 2.17 h

# input compound: Cc1nn(C)cc1-c1ccc(OCc2c(-c3ccc(C(F)F)cn3)nnn2C)nn1 ; wanted: its half-life at 1 μM
> 2.17 h

# input compound: Cn1nnc(-c2ccc(C(F)F)cn2)c1COc1ccc(-c2cnccn2)nn1 ; wanted: its half-life at 1 μM
> 2.17 h

# input compound: Cc1nnn(-c2ccc(C(F)F)cn2)c1COc1ccc(-c2ccc(=O)n(C)c2)nn1 ; wanted: its half-life at 1 μM
> 2.17 h

# input compound: Cn1nnc(-c2ccc(C(F)F)cn2)c1COc1ccc(-n2cnc(C#N)c2)nn1 ; wanted: its half-life at 1 μM
> 2.17 h

# input compound: Cn1nnc(-c2ccc(C(F)F)cn2)c1COc1ccc(-n2cccn2)nn1 ; wanted: its half-life at 1 μM
2.17 h

Source: patent US20230286946A1
